Assign inhibition to each entry below.
# assayed-target: Acetylcholinesterase (Electrophorus electricus) (UniProt O42275)
# Sequence (O42275 24-633 limits assumed): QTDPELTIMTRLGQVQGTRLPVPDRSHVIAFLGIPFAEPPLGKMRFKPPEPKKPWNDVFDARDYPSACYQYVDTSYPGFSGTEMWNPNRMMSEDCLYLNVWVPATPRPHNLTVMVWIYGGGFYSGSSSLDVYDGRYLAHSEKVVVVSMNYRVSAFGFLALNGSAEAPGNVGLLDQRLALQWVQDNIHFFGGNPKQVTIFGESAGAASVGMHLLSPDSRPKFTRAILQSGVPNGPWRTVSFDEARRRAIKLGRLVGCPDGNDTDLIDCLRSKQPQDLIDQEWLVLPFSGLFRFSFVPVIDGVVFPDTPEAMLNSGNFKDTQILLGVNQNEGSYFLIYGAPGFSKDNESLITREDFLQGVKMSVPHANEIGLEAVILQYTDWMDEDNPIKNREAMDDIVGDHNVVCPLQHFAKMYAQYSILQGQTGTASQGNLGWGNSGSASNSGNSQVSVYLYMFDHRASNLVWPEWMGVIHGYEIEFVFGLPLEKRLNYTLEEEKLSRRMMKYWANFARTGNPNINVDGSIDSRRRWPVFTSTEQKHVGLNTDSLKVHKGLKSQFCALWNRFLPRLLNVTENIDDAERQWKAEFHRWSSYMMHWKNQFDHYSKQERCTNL
# run-description: Inhibition of electric eel AChE at 10 uM using ACTI as substrate preincubated for 29 mins followed by substrate addition measured at 1 min intervals for 10 mins by Ellman's assay

[ask] Which value of inhibition has been reported for O=C(O)[C@H](Cc1c[nH]c2ccccc12)Nc1ncnc2c1oc1ccccc12 in the records?
[reply] 1.45%

[ask] What value of measured inhibition is listed for Cc1ccccc1-n1nc(C)c(CN(CCN(C)C)Cc2ccccn2)c1C ?
[reply] 2.46%

[ask] What value of measured inhibition is listed for CN(CC(=O)Nc1ccccc1F)S(=O)(=O)c1ccc2ccccc2c1 ?
[reply] 3.43%

[ask] Entry COc1ccccc1NC(=O)Cn1c(CCC(=O)O)ccc1-c1ccccc1 has what inhibition?
[reply] 2.2%

[ask] Can you share its inhibition? I mean this compound: Cc1cccc(C2(O)CCN(Cc3c(-c4cccs4)[nH]c4ncccc34)CC2)c1
[reply] 2.14%

[ask] Report inhibition for CCOC(=O)N1CCN([C@H]2CC(=O)N(c3cccc4ccccc34)C2=O)CC1 please.
[reply] 4.93%

[ask] Param item = O=C(CS[C@@H]1CC(=O)N(c2ccccc2)C1=O)Nc1ccccc1F ; retrieve measured inhibition.
[reply] 0.484%

[ask] GET /values?readout=inhibition&item= Cc1cc(C)n(C[C@H](O)CN(Cc2nc3ccccc3[nH]2)Cc2ccco2)n1
[reply] 2.32%

[ask] Data request, read-out inhibition, for CCn1c2ccccc2c2cc(C3C(C(=O)OCC4CCCO4)=C(C)NC4=C3C(=O)CCC4)ccc21 (stereo not given)
[reply] 1.73%

###

Would you kindly list inhibition for each of these compounds?
# assayed-target: Cholinesterase (Equus caballus) (UniProt P81908)
# Sequence (P81908 whole entry): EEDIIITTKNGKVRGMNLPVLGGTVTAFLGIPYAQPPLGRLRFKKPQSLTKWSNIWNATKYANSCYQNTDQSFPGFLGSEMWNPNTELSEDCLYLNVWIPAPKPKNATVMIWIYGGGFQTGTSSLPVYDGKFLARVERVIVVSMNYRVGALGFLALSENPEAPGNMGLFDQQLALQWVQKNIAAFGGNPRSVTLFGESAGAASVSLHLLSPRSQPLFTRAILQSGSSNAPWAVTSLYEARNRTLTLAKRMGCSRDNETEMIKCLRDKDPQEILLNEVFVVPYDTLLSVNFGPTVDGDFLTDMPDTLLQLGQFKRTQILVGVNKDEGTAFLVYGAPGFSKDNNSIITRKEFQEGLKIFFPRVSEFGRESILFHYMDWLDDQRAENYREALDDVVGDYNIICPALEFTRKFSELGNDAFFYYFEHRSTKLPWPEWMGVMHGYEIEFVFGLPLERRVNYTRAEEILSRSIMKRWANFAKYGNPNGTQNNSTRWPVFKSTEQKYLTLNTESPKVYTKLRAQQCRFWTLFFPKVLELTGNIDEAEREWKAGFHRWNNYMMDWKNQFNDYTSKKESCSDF
# run-description: Inhibition of equine BuChE at 10 uM using ACTI as substrate preincubated for 29 mins followed by substrate addition measured at 1 min intervals for 10 mins by Ellman's assay

[ask] Look up inhibition for this compound: O[C@H](CN1CCN(c2ccccc2)CC1)c1c[nH]c2ccc(F)cc12
[reply] 1.31%

[ask] Entry under review: CCn1c2ccccc2c2cc(C3C(C(=O)OCC4CCCO4)=C(C)NC4=C3C(=O)CCC4)ccc21 (stereo not given) . Reported inhibition?
[reply] 84.2%

[ask] Suppose we examine the compound Cc1ccccc1-n1nc(C)c(CN(CCN(C)C)Cc2ccccn2)c1C ; what inhibition value has been reported?
[reply] 31.9%

[ask] For the compound shown here, CCn1c2ccccc2c2cc(C3C(C(=O)OC4CCCC4)=C(C)NC4=C3C(=O)CC(C)(C)C4)ccc21 (stereo not given) , give the reported inhibition.
[reply] 2.53%

[ask] Reported inhibition for CCOCCOC(=O)C1=C(C)NC2=C(C(=O)CC(C)(C)C2)C1c1ccc2c(c1)c1ccccc1n2CC (stereo not given) : what is it?
[reply] 2.49%

[ask] Which value of inhibition has been reported for Cc1cc(C)n(C[C@H](O)CN(Cc2nc3ccccc3[nH]2)Cc2ccco2)n1 in the records?
[reply] 6.33%

[ask] Please look up its inhibition: O=C(CS[C@@H]1CC(=O)N(c2ccccc2)C1=O)Nc1ccccc1F
[reply] 6.01%

[ask] What value of inhibition has been reported for the following compound? CN(CC(=O)Nc1ccccc1F)S(=O)(=O)c1ccc2ccccc2c1
[reply] 5.64%

[ask] Look up inhibition: Cc1cc2nc([C@@H]3CCCN3C(=O)[C@H]3C[C@@H](O)CN3Cc3ccccc3)[nH]c2cc1C
[reply] 17.5%

[ask] Entry under review: Cc1cccc(C2(O)CCN(Cc3c(-c4cccs4)[nH]c4ncccc34)CC2)c1 . Reported inhibition?
[reply] 16.2%

[ask] Item under review: CCOC(=O)N1CCN([C@H]2CC(=O)N(c3cccc4ccccc34)C2=O)CC1 . Reported inhibition?
[reply] 1.85%

[ask] Tell me the measured inhibition of CCCCSc1nc2c(c(=O)[nH]c(=O)n2C)n1C[C@@H](O)COc1cccc2ccccc12 , please.
[reply] 3.69%

[ask] I am curious: what inhibition value has been reported for COc1ccccc1NC(=O)Cn1c(CCC(=O)O)ccc1-c1ccccc1 ?
[reply] 5.54%

[ask] What value of inhibition has been recorded for this entry: CCn1c2ccccc2c2cc(C3C(C(=O)OC)=C(C)NC4=C3C(=O)CCC4)ccc21 (stereo not given)
[reply] 49.5%

[ask] Item CCn1c2ccccc2c2cc([C@@H]3C(C(=O)OCCOC)=C(C)NC4=C3C(=O)CCC4)ccc21 has what recorded inhibition?
[reply] 52.7%

[ask] Return reported inhibition; argument: O=C(Cn1cc(C(=O)C2CC2)c2ccccc21)NCCc1c[nH]c2ccccc12
[reply] 7.28%

[ask] // query inhibition value for entry O=C(O)[C@H](Cc1c[nH]c2ccccc12)Nc1ncnc2c1oc1ccccc12
[reply] 7.18%

[ask] Data request, read-out inhibition, for CCSCCOC(=O)C1=C(C)NC2=C(C(=O)CCC2)C1c1ccc2c(c1)c1ccccc1n2CC (stereo not given)
[reply] 51.2%

[ask] Query: inhibition; subject: CCCCOC(=O)C1=C(C)NC2=C(C(=O)CCC2)C1c1ccc2c(c1)c1ccccc1n2CC (stereo not given)
[reply] 53.7%
